Reference source: patent US20090275070A1

- study_system: Ba/F3 cells expressing p210Bcr-Abl-T315I (Homo sapiens, UniProt P00519, T315I, cells depend on it)
- Construct: fused on or other part: P11274 (Breakpoint cluster region protein)
- assay_notes: phenoresponse-based cellular assay (cell count and viability), Ba/F3 T315I test cells;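 further: cells counted by automated microcell imaging, viability scored by trypan blue exclusion, phenoresponse judged against parental Ba/F3 and Ba/F3 carrying wild-type p210Bcr-Abl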
- Design: species or system murine
- cond: concentration inhibiting growth of the cell line by 50% in the cellular assay, read-out: T315I (IC50 activity category)
Here the recorded GI50 is given for each entry.

compound_structure_string	GI50
Oc1ccc(-c2ccc(Nc3ccc(/C=N/Nc4ncc(F)c(N5CCOCC5)n4)nc3)cc2C(F)(F)F)cc1	< 0.3 µM
Cc1cccc(Cl)c1-c1ccc(Nc2ccc(/C=N/Nc3ncc(F)c(N4CCOCC4)n3)nc2)cc1	< 0.3 µM
Fc1cnc(N/N=C/c2ccc(Nc3cccc(-n4ccnc4)c3)cn2)nc1N1CCOCC1	< 1 µM
Fc1cnc(N/N=C/c2ccc(Nc3ccc(N4CCOCC4)cc3)cn2)nc1N1CCOCC1	< 1 µM
Cc1ccc(/C=N/Nc2ncc(F)c(N3CCOCC3)n2)cc1	> 10 µM
